target: TIP48/TIP49 complex (Homo sapiens, UniProt Q9Y230+Q9Y265)
Sequence (Q9Y230 whole entry): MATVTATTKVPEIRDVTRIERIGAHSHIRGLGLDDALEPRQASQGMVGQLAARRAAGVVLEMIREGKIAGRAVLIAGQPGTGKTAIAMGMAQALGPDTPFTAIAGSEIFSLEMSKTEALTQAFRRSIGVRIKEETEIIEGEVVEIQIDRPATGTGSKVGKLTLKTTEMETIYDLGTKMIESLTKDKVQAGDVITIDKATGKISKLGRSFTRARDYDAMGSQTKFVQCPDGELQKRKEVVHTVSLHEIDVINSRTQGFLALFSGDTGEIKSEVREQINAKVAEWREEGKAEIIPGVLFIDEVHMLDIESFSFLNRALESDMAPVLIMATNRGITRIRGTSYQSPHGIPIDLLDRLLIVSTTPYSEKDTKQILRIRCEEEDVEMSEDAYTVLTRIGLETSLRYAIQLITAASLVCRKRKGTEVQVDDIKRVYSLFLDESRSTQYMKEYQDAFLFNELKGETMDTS
Sequence (Q9Y265 whole entry): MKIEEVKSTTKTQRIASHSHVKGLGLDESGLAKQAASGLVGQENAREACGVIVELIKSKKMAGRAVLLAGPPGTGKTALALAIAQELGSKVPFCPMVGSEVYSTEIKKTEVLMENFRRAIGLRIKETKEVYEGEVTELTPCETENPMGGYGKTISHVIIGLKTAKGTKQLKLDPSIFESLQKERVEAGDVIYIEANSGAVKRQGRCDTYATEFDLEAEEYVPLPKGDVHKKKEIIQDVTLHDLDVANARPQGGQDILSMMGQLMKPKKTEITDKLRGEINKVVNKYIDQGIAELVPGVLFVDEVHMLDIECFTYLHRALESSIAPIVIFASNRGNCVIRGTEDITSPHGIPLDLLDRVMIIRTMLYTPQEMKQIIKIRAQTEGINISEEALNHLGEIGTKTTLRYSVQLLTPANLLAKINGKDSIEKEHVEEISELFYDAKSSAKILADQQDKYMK
assay-name: ATPase assay of TIP48/TIP49 complex (ADP-Glo)
experimental-conditions: concentration at which the ATPase activity was inhibited by 50%
property-label: IC50 (nM)

* COc1cc(F)c(Cl)cc1NC(=O)CC(C)(C)CC(=O)Nc1c(CN(C)C)n(C)n(-c2ccccc2)c1=O | 210
* CCOc1ccc(Cl)cc1C(=O)NCC(C)(C)CC(=O)Nc1c(CCN(C)C(C)C)n(C)n(-c2ccccc2)c1=O | 63
* CCOc1ncc(Br)cc1C(=O)NCC(C)(C)CC(=O)Nc1c(CC(C)(C)NC)n(C)n(-c2ccccc2)c1=O | 94
* CCOc1ncc(Cl)cc1C(=O)NCC(C)(C)CC(=O)Nc1c(C)n(CCN(C)C)n(-c2ccccc2)c1=O | 160

P. CCOc1ccc(Cl)cc1C(=O)NCC(C)(C)CC(=O)Nc1c(CCNCC(F)(F)F)n(C)n(-c2ccccc2)c1=O
Q. Cc1cc2cc(Cl)cc(C(=O)NCC(C)(C)CC(=O)Nc3c(C[C@H](C)N(C)C)n(C)n(-c4ccccc4)c3=O)c2o1
Prompt line: So which one has the bigger IC50 here, P or Q ? Select an item and report its label.
Response line: Q
(Q: 94 nM, P: 33 nM)

----------
System: human lymphoma cell line RAMOS cells
assay-name: Cell growth inhibition test using RAMOS cell, ATP assay (CellTiter-Glo)
Format: cell-based
experimental-conditions: Homo sapiens, Ramos, 72 h, cultured 3 days, 50% growth inhibition concentration
Experimental: A cell growth inhibition test was carried out by treating human lymphoma cell line RAMOS cells with a test compound for a given period and then counting the number of viable cells by MTT assay or CellTiter-Glo Luminescent Cell Viability Assay (manufactured by Promega Corp.; hereinafter, referred to as ATP assay). […] The number of viable cells and luminescence intensity have been confirmed to correlate with each other. […] T/C % at each concentration of the test compound was determined. […]
property-label: GI50 (µM)

* CCOc1cc(F)c(Cl)cc1C(=O)NCC(C)(C)CC(=O)Nc1c(COC)n(C)n(-c2ccccc2)c1=O | 0.13
* CCOc1ncc(Br)cc1C(=O)NCC(C)(C)CC(=O)Nc1c(C(C)CN(C)C)n(C)n(-c2ccccc2)c1=O (stereo not shown) | 0.47
* COCOc1cc(Cl)c(Cl)cc1C(=O)NCC(C)(C)CC(=O)Nc1c(C(C)CN(C)C)n(C)n(-c2ccccc2)c1=O (stereo not shown) | 0.27
* Cc1cc2cc(Cl)cc(C(=O)NCC(C)(C)CC(=O)Nc3c(CC(C)(C)N)n(C)n(-c4ccccc4)c3=O)c2o1 | 0.11
* CCOc1cc(F)c(Cl)cc1C(=O)NCC(C)(C)CC(=O)Nc1c([C@H](C)OC)n(C)n(-c2ccccc2)c1=O | 0.12

P. CCOc1cc(F)c(Cl)cc1C(=O)NCC(C)(C)CC(=O)Nc1c(CCN(C)C)n(CC)n(-c2ccccc2)c1=O
Q. CCOc1ccc(Cl)cc1C(=O)NCC(C)(C)CC(=O)Nc1c(COC)n(C)n(-c2ccccc2)c1=O
Prompt line: So which one has the bigger GI50 here, P or Q ? Select an item and report its label.
Response line: Q

----------
target: TIP48/TIP49 complex (Homo sapiens, UniProt Q9Y230+Q9Y265)
Construct: made in house; host or cells: E. coli
assay-name: ATPase assay of TIP48/TIP49 complex (ADP-Glo)
Format: biochemical
experimental-conditions: concentration at which the ATPase activity was inhibited by 50%
property-label: IC50 (nM)

- CCOc1ccc(Cl)cc1C(=O)NCC(C)(C)CC(=O)Nc1c(C)n(C)n(-c2cc(OC)ccn2)c1=O: 140

a. CCOc1cc(F)c(Cl)cc1C(=O)NCC(C)(C)CC(=O)Nc1c(C(CN(C)C)OC)n(C)n(-c2ccccc2)c1=O (stereo not shown)
b. Cc1cccc(-n2c(=O)c(NC(=O)CC(C)(C)CC(=O)Nc3cc(Cl)ccc3OC(F)(F)F)c(C)n2C)n1
c. CCOc1ccc(Cl)cc1C(=O)NCC(C)(C)CC(=O)Nc1c(CCC(F)(F)F)n(C)n(-c2ccccc2)c1=O
Prompt line: Arrange the 3 molecules from largest to smallest IC50. Respond with the label ranking, as requested.
Response line: a, b, c
(a: 140 nM, b: 82 nM, c: 33 nM)

----------
target: TIP48/TIP49 complex (Homo sapiens, UniProt Q9Y230+Q9Y265)
assay-name: ATPase assay of TIP48/TIP49 complex (ADP-Glo)
experimental-conditions: concentration at which the ATPase activity was inhibited by 50%
pIC50: −log10 of the molar value.
property-label: pIC50

Use the examples below as a reference point.
• CCOc1ncc(Cl)cc1C(=O)NCC(C)(C)CC(=O)Nc1c(CCN(C)C)n(C)n(-c2ccccc2)c1=O = 7.09
• COCOc1ccc(Cl)cc1C(=O)NCC(C)(C)CC(=O)Nc1c(CCN(C)C)n(C)n(-c2ccccc2)c1=O = 7.32
• CCOc1cc(F)c(Cl)cc1C(=O)NCC(C)(C)CC(=O)Nc1c([C@H](C)CN(C)C)n(C)n(-c2ccccc2)c1=O = 7.08
• CCOc1ccc(Cl)cc1C(=O)NCC(C)(C)CC(=O)Nc1c(CCN(C)C)n(C)n(-c2ccccc2)c1=O = 7.28

1. CNCC(C)c1c(NC(=O)CC(C)(C)CNC(=O)c2cc(Cl)cc3cc(C)oc23)c(=O)n(-c2ccccc2)n1C (stereo not shown)
2. CCOc1ccc(Cl)cc1C(=O)NCC(C)(C)CC(=O)Nc1c(C(C)OC)n(C)n(-c2ccccc2)c1=O (stereo not shown)
3. COc1ccc(Cl)cc1C(=O)NCC(C)(C)C(O)C(=O)Nc1c(C)n(C)n(-c2ccccc2)c1=O (stereo not shown)
Prompt line: Arrange the 3 molecules from largest to smallest pIC50. Respond with the label ranking, as requested.
Response line: 2, 1, 3

----------
target: TIP48/TIP49 complex (Homo sapiens, UniProt Q9Y230+Q9Y265)
assay-name: ATPase assay of TIP48/TIP49 complex (ADP-Glo)
experimental-conditions: concentration at which the ATPase activity was inhibited by 50%
Description: The ATPase activity of the TIP48/TIP49 complex can be measured by use of an ATPase assay described below in Test Examples 1 and 2. […] Alternatively, the ATPase activity of the TIP48/TIP49 complex can be measured by a method described in, for example, J. Mol. Biol. 366, 172-179 (2007). […] The ATPase inhibitory activity was calculated according to the expression given below. […]
pIC50: −log10 of the molar value.
property-label: pIC50

Use the examples below as a reference point.
- CCOc1ncc(Cl)cc1C(=O)NCC(C)(C)CC(=O)Nc1c(C)n(C)n(-c2cccc(C)n2)c1=O: 7.01
- Cc1cc2cc(Cl)cc(C(=O)NCC(C)(C)CC(=O)Nc3c(CCN(C)C)n(C)n(-c4ccccc4F)c3=O)c2o1: 7.09
- CCOc1ccc(Cl)cc1NC(=O)CC(C)(O)CC(=O)Nc1c(C)n(C)n(-c2ccccc2)c1=O (stereo not shown): 6.77
- COc1ccc(Cl)cc1NC(=O)CC(C)(C)CC(=O)Nc1c(C)n(C)n(C2CCCCC2)c1=O: 6.70
- COc1ccc(Cl)cc1C(=O)NCC(C)(C)CC(=O)Nc1c(CN(C)CCO)n(C)n(-c2ccccc2)c1=O: 7.02

I. C=Cn1c(C)c(NC(=O)CC(C)(C)CC(=O)Nc2cc(Cl)c(F)cc2OC)c(=O)n1-c1ccccc1
II. [2H]C([2H])([2H])n1c(CCN(C)C)c(NC(=O)CC(C)(C)CNC(=O)c2cc(Cl)ccc2OCC)c(=O)n1-c1ccccc1
Prompt line: Among I and II , whose measured pIC50 is the smaller figure? Select an item and report its label.
Response line: I

----------
target: TIP48/TIP49 complex (Homo sapiens, UniProt Q9Y230+Q9Y265)
assay-name: ATPase assay of TIP48/TIP49 complex (ADP-Glo)
experimental-conditions: concentration at which the ATPase activity was inhibited by 50%
property-label: IC50 (nM)

Use the examples below as a reference point.
• CNC(C)(C)Cc1c(NC(=O)CC(C)(C)CNC(=O)c2cc(Cl)cc3cc(C)oc23)c(=O)n(-c2ccccc2)n1C [Example 61] = 52
• COc1ccc(Cl)cc1C(=O)NCC(C)(C)CC(=O)Nc1c(C)n(C)n(-c2cccc(C)c2)c1=O [Example 145] = 42
• CCOc1ncc(Cl)cc1C(=O)NCC(C)(C)CC(=O)Nc1c(C)n(CCN2CCC2)n(-c2ccccc2)c1=O [Example 140] = 250
• CCOc1ccc(Cl)cc1C(=O)NCC(C)(C)CC(=O)Nc1c(CCNC)n(C)n(-c2ccccc2)c1=O [Example 33] = 63
• CCOc1ncc(Cl)cc1NC(=O)CC(C)(C)CC(=O)Nc1c(CCN(C)C)n(C)n(-c2ccccc2)c1=O [Example 25] = 140

I. CCOc1ncc(Cl)cc1C(=O)NCC(C)(C)CC(=O)Nc1c(C(CN(C)C)OC)n(C)n(-c2ccccc2)c1=O (single isomer, unassigned; (-)) [Example 82]
II. CCOc1ncc(Cl)cc1C(=O)NCC(C)(C)CC(=O)Nc1c(CCN(C)C)n(CC)n(-c2ccccc2)c1=O [Example 42]
Prompt line: Among I and II , whose measured IC50 is the smaller figure? Select an item and report its label.
Response line: I
(I: 49 nM, II: 80 nM)

A. CCOc1ncc(Cl)cc1NC(=O)CC(C)(C)CC(=O)Nc1c(COC)n(C)n(-c2ccccc2)c1=O [Example 118]
B. COc1ccc(Cl)cc1NC(=O)CC1(CC(=O)Nc2c(C)n(C)n(-c3ccccc3)c2=O)OCCO1 [Example 98]
C. CCOc1ncc(Cl)cc1C(=O)NCC(C)(C)CC(=O)Nc1c(C(CN(C)C)OC)n(C)n(-c2ccccc2)c1=O (centres unmarked) [Example 81]
D. CCOc1ccc(Cl)cc1C(=O)NCC(C)(C)CC(=O)Nc1c(CCN(C)C)n(C)n(-c2cccc(Cl)n2)c1=O [Example 47]
Prompt line: Sort ascending by IC50. Respond with the label ranking, as requested.
Response line: D, A, C, B
(D: 37 nM, A: 65 nM, C: 210 nM, B: 2200 nM)
